# Test system: SF-295
# test-name: NCI tumour cell line growth inhibition, 48 h
Calls of active or inactive are those of the source. Cut-off read from the data, not from the text of the source: active = GI50 up to about 1.1 µM and inactive = higher.
property: GI50

| compound | observed-result |
| --- | --- |
| O=C1CC23CC(=O)CC2(C1)c1ccccc1C3=O (stereo not drawn) | > 100 µM (inactive) |
| CC1(c2nc3ccccc3[nH]2)CCC(CO)C(C)(C)O1 (stereo not drawn) | > 100 µM (inactive) |
| OCC1NC(COC2OC(CO)C(O)C(O)C2O)C(O)C(O)C1O (stereo not drawn) | > 100 µM (inactive) |
| O=C(/C(=C/c1ccc(O)cc1)c1ccccc1)c1ccccc1 | 16.1 µM (inactive) |
| CC(NNC(=O)c1cc[n+]([BH2-]C#N)cc1)c1ccccc1 (stereo not drawn) | > 100 µM (inactive) |
| CC(=O)Nc1ccc(C(=O)NN2C(=O)C(Cl)C2c2ccc(Cl)cc2)cc1 (stereo not drawn) | 20.6 µM (inactive) |
| O=C(C#Cc1cn(C2CC(O)C(CO)O2)c(=O)[nH]c1=O)c1ccccc1 (stereo not drawn) | > 100 µM (inactive) |
| C=C1CC(c2ccc(O)c(OC)c2)Oc2c(OC)cccc21 (stereo not drawn) | 80.5 µM (inactive) |

Request: If you can, please state the reported GI50 value of C[C@@]1(c2ccccc2)O[C@@H]2C[C@H]3[C@@H]4CCC5=CC(=O)C=C[C@]5(C)[C@@]4(F)[C@@H](O)C[C@]3(C)[C@]2(C(=O)CO)O1 [AMCINAFIDE] .
Response: 16.7 µM (inactive)

Request: Item: Cc1cc(S(=O)(=O)Nc2nc(N)nc(N3CCOCC3)n2)c(SCC(=O)O)cc1Cl
Response: > 10 µM (inactive)

Request: Item: O=C1O[C@H](C(Cl)(Cl)Cl)N2CCCC12 (stereo partly drawn)
Response: > 100 µM (inactive)

Request: Item: O=C1C=C(Cl)C(=O)C(c2ccc(Cl)cc2)=C1
Response: 45.6 µM (inactive)
